Attribute: protein stability index
B1: MATN2 (parent)
chain: FIVDILQFLDIGPDVTRVGLLQYG

- Variants of: B1
- assay.details: protein stability index of a GFP-peptide fusion (GPS, HEK-293T) (PSI 1-6); higher = more stable;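 further: lentivirally expressed fusions sorted by FACS into six bins by GFP to DsRed ratio, PSI derived from sequencing read proportions per bin multiplied by bin number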
- assay.context: c terminus: a fixed tail appended
recorded.metric: protein stability index

• G19D = 3.21
• F8V = 2.94
• G19L = 3.83
• P13K = 2.15
• I11K = 3.5
• F1Q = 2.03
• R17S = 1.03
• G19S = 2.33
• I5Q = 1.81
• I5E = 3.96
• V18S = 3.5
• L20F = 2.92
• F1N = 2.54
• L21K = 2.13
• L20N = 3.71
• L9D = 2.93
• I5L = 2.26
• G24R = 2.18
• R17Y = 3.22
• L21A = 2.8
• Q7A = 3.4
• L6H = 3.78

Origin of values: the supplement of paper PMC10567573
